System: Aspergillus fumigatus
assay-comment: Antifungal activity against Aspergillus fumigatus 231 after 48 hrs by broth microdilution method
Type: functional, organism-based
measurement-setup: Aspergillus fumigatus, 231, 48 h
pIC50: −log10 of the molar value.

| substance-smiles | pIC50 |
| --- | --- |
| O=[N+]([O-])c1cc(CSc2nnnn2C2CCCCC2)cc([N+](=O)[O-])c1 | < 3.30 |
| O=C(O)c1cccc(-n2nnnc2SCc2cc([N+](=O)[O-])cc([N+](=O)[O-])c2)c1 | < 3.30 |
| O=[N+]([O-])c1cc(CSc2nnnn2Cc2ccccc2)cc([N+](=O)[O-])c1 | < 3.30 |
